- Target entity: T1, BMPRIa receptor-Fc fusion (UniProt P36894 24-152, limits assumed)
- T1 construct: also called ALK-3
- T1 sequence (P36894 24-152 limits assumed): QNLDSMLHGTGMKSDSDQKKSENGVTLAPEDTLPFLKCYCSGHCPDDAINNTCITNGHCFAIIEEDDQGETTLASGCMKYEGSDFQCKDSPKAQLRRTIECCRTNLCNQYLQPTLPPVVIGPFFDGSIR
- Assay method text: ELISA-like plate assay, captured BMP-7 from conditioned media, receptor-Fc detection
Measure: BMPRIa binding (relative to wild type = 1.0)

| Binder | Reported measurement |
| --- | --- |
| BMP-7 variant Q53R (ligand, In conditioned media; numbering on mature BMP-7) STGGKQRSQNRSKTPKNQEALRMASVAENSSSDQRQACKKHELYVSFRDLGWRDWIIAPEGYAAYYCEGECAFPLNSYMNATNHAIVQTLVHFINPETVPKPCCAPTQLNAISVLYFDDSSNVILKKYRNMVVRACGCH | 1.26 relative to wild type |
| BMP-7 variant R129N (ligand, In conditioned media; numbering on mature BMP-7) STGGKQRSQNRSKTPKNQEALRMASVAENSSSDQRQACKKHELYVSFRDLGWQDWIIAPEGYAAYYCEGECAFPLNSYMNATNHAIVQTLVHFINPETVPKPCCAPTQLNAISVLYFDDSSNVILKKYNNMVVRACGCH | 0.89 relative to wild type |
| BMP-7 variant V26G (ligand, In conditioned media; numbering on mature BMP-7) STGGKQRSQNRSKTPKNQEALRMASGAENSSSDQRQACKKHELYVSFRDLGWQDWIIAPEGYAAYYCEGECAFPLNSYMNATNHAIVQTLVHFINPETVPKPCCAPTQLNAISVLYFDDSSNVILKKYRNMVVRACGCH | 1.08 relative to wild type |
| BMP-7 variant R48Q (ligand, In conditioned media; numbering on mature BMP-7) STGGKQRSQNRSKTPKNQEALRMASVAENSSSDQRQACKKHELYVSFQDLGWQDWIIAPEGYAAYYCEGECAFPLNSYMNATNHAIVQTLVHFINPETVPKPCCAPTQLNAISVLYFDDSSNVILKKYRNMVVRACGCH | 1.06 relative to wild type |

Every entry's value here was drawn from patent US20060058231A1.
